The measurements presented in this section are drawn from patent US7968556B2.

I'd appreciate it if you could supply melting point values for the items below.

The following compounds have reported results that may help.
- compound: "NC(=O)c1nc(-c2cnc3nc[nH]c3c2)nc2c1[nH]c(=O)n2-c1ccccc1C(F)(F)F [Compound 137]"
  melting point: "320 °C"
- compound: "CC(C)Cc1ccccc1-n1c(=O)[nH]c2c(C(N)=O)nc(-c3cccc(O)c3)nc21 [Compound 161]"
  melting point: "> 260 °C"
- compound: "CO[C@H]1CC[C@@H](n2c(=O)[nH]c3c(C(N)=O)nc(-c4ccc5nc[nH]c5c4)nc32)CC1 [Compound 167]"
  melting point: "345 °C (dec.)"

I need melting point for every entry listed below, if you could help.
1. NC(=O)c1nc(-c2cccc(O)c2)nc2c1[nH]c(=O)n2-c1ccccc1C(F)(F)F [Compound 58]
2. COc1ccc(-n2c(=O)[nH]c3c(C(N)=O)nc(-c4cccc(O)c4)nc32)c(C)c1 [Compound 57]
3. NC(=O)c1nc(-c2cccc(O)c2)nc2c1[nH]c(=O)n2-c1ccc(Cl)cc1Cl [Compound 25]
4. NC(=O)c1nc(-c2cccc(O)c2)nc2c1[nH]c(=O)n2-c1cccc2[nH]ccc12 [Compound 147]
5. NC(=O)c1nc(-c2ccc3nc[nH]c3c2)nc2c1[nH]c(=O)n2-c1ccccc1F [Compound 101]

OUT:
363 to 365 °C
355 to 357 °C
375 to 377 °C
> 260 °C
278 °C

Items follow; give melting point for each.
1. COC(=O)c1cccc(-c2nc(C(N)=O)c3[nH]c(=O)n(-c4ccccc4OC)c3n2)c1 [Compound 61]
2. COc1ccccc1-n1c(=O)[nH]c2c(C(N)=O)nc(-c3ccnc(O)c3)nc21 [Compound 13]
3. NC(=O)c1nc(-c2cnc3nc[nH]c3c2)nc2c1[nH]c(=O)n2C1CCCCC1 [Compound 150]

OUT:
1: 265 to 266 °C; 2: 360 to 362 °C; 3: 320 °C (dec.)

// for each compound below, give its melting point
1. NC(=O)c1nc(-c2cccc(O)c2)nc2c1[nH]c(=O)n2-c1cccc(F)c1 [Compound 28]
2. COc1ccccc1-n1c(=O)[nH]c2c(C(N)=O)nc(-c3cccc([N+](=O)[O-])c3)nc21 [Compound 26]
3. COc1ccc(F)c(-n2c(=O)[nH]c3c(C(N)=O)nc(-c4cccc(O)c4)nc32)c1 [Compound 149]

OUT:
1. > 375 °C
2. 295 to 296 °C
3. > 260 °C

Quick request: melting point for each listed item, please.
1. COc1ccccc1-n1c(=O)[nH]c2c(C(N)=O)nc(Nc3ccccc3CO)nc21 [Compound 124]
2. COc1ccccc1-n1c(=O)[nH]c2c(C(N)=O)nc(-c3ccc4nc(C(F)(F)F)[nH]c4c3)nc21 [Compound 117]
3. NC(=O)c1nc(-c2cccc(O)c2)nc2c1[nH]c(=O)n2-c1ccccc1-c1ccccc1 [Compound 119]

OUT:
1: 159 to 162 °C; 2: 220 to 222 °C; 3: 293 to 296 °C

For every listed record, write down its melting point.
1. COc1ccc(-n2c(=O)[nH]c3c(C(N)=O)nc(-c4cccc(O)c4)nc32)cc1 [Compound 12]
2. N#Cc1cccc(-c2nc(C(N)=O)c3[nH]c(=O)n(-c4ccccc4)c3n2)c1 [Compound 27]

OUT:
386 to 388 °C
328 to 330 °C

Each of the following entries comes with a recorded value; kindly state melting point for each.
1. COc1ccccc1-n1c(=O)[nH]c2c(C(N)=O)nc(-c3cnc4nc[nH]c4c3)nc21 [Compound 130]
2. NC(=O)c1nc(-c2ccccn2)nc2c1[nH]c(=O)n2-c1ccccc1 [Compound 3]
3. COc1ccccc1-n1c(=O)[nH]c2c(C(N)=O)nc(-c3ccc4[nH]c(SC)nc4c3)nc21 [Compound 138]
4. COc1ccccc1-n1cnc2c(C(N)=O)nc(-c3cccc(O)c3)nc21 [Compound 39]
5. COc1ccccc1-n1c(=O)[nH]c2c(C(N)=O)nc(-c3cccc(O)c3F)nc21 [Compound 77]
6. COc1ccc(-n2c(=O)[nH]c3c(C(N)=O)nc(-c4cccc(O)c4)nc32)c(F)c1 [Compound 155]
7. COc1ccccc1-n1c(=O)[nH]c2c(C(N)=O)nc(N[C@H]3CC[C@@H](O)CC3)nc21 [Compound 110]

OUT:
1. 358 °C (dec.)
2. 347 to 349 °C
3. 244 to 245 °C
4. 257 to 259 °C
5. > 300 °C
6. > 260 °C
7. 295 to 297 °C

Report melting point for every entry below.
1. NC(=O)c1nc(-c2cnccc2Cl)nc2c1[nH]c(=O)n2-c1ccccc1C(F)(F)F [Compound 109]
2. COc1ccccc1-n1c(=O)[nH]c2c(C(N)=O)nc(-c3cccc(C#N)c3)nc21 [Compound 55]

OUT:
244 to 248 °C (dec.)
316 to 318 °C

Would you mind giving melting point for every compound in the list below?
1. COc1cccc(-n2c(=O)[nH]c3c(C(N)=O)nc(-c4cccc(O)c4)nc32)c1F [Compound 148]
2. NC(=O)c1nc(-c2cccc(O)c2)nc2c1[nH]c(=O)n2-c1c(F)cccc1F [Compound 16]
3. COc1ccccc1-n1c(=O)[nH]c2c(C(N)=O)nc(Nc3cccc(CO)c3)nc21 [Compound 123]

OUT:
> 260 °C
355 to 358 °C
237 to 239 °C

// CC(C)c1ccccc1-n1c(=O)[nH]c2c(C(N)=O)nc(-c3ccc(-n4ccnc4)cc3)nc21 [Compound 131] : melting point value = 232 °C

====

result.type: melting point

Some molecules with recorded melting point:
- compound.structure: "CO[C@H]1CC[C@@H](n2c(=O)[nH]c3c(C(N)=O)nc(-c4cccc(O)c4)nc32)CC1"
  result.type: "melting point"
  observed: "345 to 347 °C"
- compound.structure: "NC(=O)c1nc(-c2cccnc2)nc2c1[nH]c(=O)n2Cc1ccccc1"
  result.type: "melting point"
  observed: "334 to 335 °C"
- compound.structure: "COc1ccccc1-n1c(=O)[nH]c2c(C(N)=O)nc(N[C@H]3CCNC3)nc21"
  result.type: "melting point"
  observed: "> 400 °C"

Give melting point for each of the items listed below.
1. COc1ccccc1-n1cnc2c(C(N)=O)nc(Nc3cccc(O)c3)nc21
2. COc1ccccc1-n1c(=O)[nH]c2c(C(N)=O)nc(-c3ccc(C(N)=O)cc3)nc21

OUT:
["155 to 157 °C", "> 350 °C"]

For every record below, what is its melting point?
1. COc1ccccc1-n1c(=O)[nH]c2c(C(N)=O)nc(NC[C@H]3CCCN3)nc21
2. COc1ccccc1-n1c(=O)[nH]c2c(C(N)=O)nc(Nc3ccc(Cn4ccnc4)cc3)nc21
3. COc1ccccc1-n1c(=O)[nH]c2c(C(N)=O)nc(-c3ccc(C#N)cc3)nc21

OUT:
1. 155 to 157 °C
2. 165 to 170 °C
3. 335 to 338 °C

====

So I've got a bunch of compounds here, and I need their melting point values.

- compound: "NC(=O)c1nc(-c2cccc(O)c2)nc2c1[nH]c(=O)n2-c1ccccc1Cl"
  result.type: "melting point"
  observed: "360 to 364 °C"
- compound: "COc1ccccc1-n1c(=O)[nH]c2c(C(N)=O)nc(-c3ccc(O)cc3)nc21"
  result.type: "melting point"
  observed: "362 to 363 °C"
- compound: "NC(=O)c1nc(-c2cccc(O)c2)nc2c1[nH]c(=O)n2-c1c(Cl)cccc1Cl"
  result.type: "melting point"
  observed: "290 to 292 °C"

Look up melting point for the entries below, preserving their order.
1. COc1ccccc1-n1c(=O)[nH]c2c(C(N)=O)nc(-c3ccc4nc(C)[nH]c4c3)nc21
2. COc1ccccc1-n1cnc2c(C(N)=O)nc(-c3ccccc3O)nc21
3. COc1ccccc1-n1c(=O)[nH]c2c(C(N)=O)nc(-c3cccc(C(=O)O)c3)nc21
4. CC(C)c1ccccc1-n1c(=O)[nH]c2c(C(N)=O)nc(-c3ccc(-c4nc[nH]n4)cc3)nc21

OUT:
1: 270 °C; 2: 278 to 280 °C; 3: 348 to 350 °C; 4: 368 °C

Hey, can you go through the list below and give me melting point for every item?
1. NC(=O)c1nc(-c2cccnc2)nc2c1[nH]c(=O)n2[C@H]1CC[C@H](O)CC1 [Compound 48]
2. NC(=O)c1nc(-c2cccnc2)nc2c1ncn2-c1ccccc1

OUT:
331 to 333 °C
298 to 299 °C

For every item in the list below, what is its measured melting point?
1. CC(C)(C)c1ccccc1-n1c(=O)[nH]c2c(C(N)=O)nc(-c3cccc(O)c3)nc21
2. CNC(=O)c1nc(-c2cccc(O)c2)nc2c1[nH]c(=O)n2-c1ccccc1OC
3. CN(C)C(=O)c1nc(-c2cccnc2)nc2c1[nH]c(=O)n2-c1ccccc1
4. CC(C)c1ccccc1-n1c(=O)[nH]c2c(C(N)=O)nc(-c3cnc4[nH]ccc4c3)nc21

OUT:
["294 to 297 °C", "339 °C", "250 to 252 °C", "380 °C (dec.)"]

State the recorded melting point for every item in the following list.
1. COc1ccccc1-n1c(=O)[nH]c2c(C(N)=O)nc(-c3cccc4[nH]ccc34)nc21
2. COC[C@H]1CC[C@@H](n2c(=O)[nH]c3c(C(N)=O)nc(-c4cccc(O)c4)nc32)CC1

OUT:
1. 312 to 313 °C
2. 324 to 326 °C
